pKi: −log10 of the molar value.
Observed pKi for Muscarinic acetylcholine receptor M3 (Homo sapiens), reported per entry below.
Endpoint: pKi

[I] CN1CCC(Oc2nc3ccccc3n2-c2ccccc2)C1 (racemic)
[II] CN1CCC(OC(=O)N(c2ccccc2)c2ccccc2)C1 (configuration not stated)
input: I or II : whose pKi is greater? Your choice should be expressed through its label.
output: I
(I: 7.22, II: 6.91)

[a] CN1CCCC(Oc2nc3ccccc3n2-c2ccccc2)C1 (racemic)
[b] CN1CCC(OC(=O)N(c2ccccc2)c2ccccc2)CC1
input: For the pair a and b , which member has the lower pKi number? Your choice should be expressed through its label.
output: a

Reference source: ChEMBL document CHEMBL5634153
